Recorded EC50 for the following compounds
system: rat aortic strips; test: Vasodilating activity: relaxation of isolated rat aortic strips contracted with potassium chloride; conditions: rat aortic strips contracted with 30 mM potassium chloride; relaxation by papaverine 3×10^-5 g/ml taken as 100%; read-out: Median effective concentration (ED50)
Measured Parameter: EC50 (µg/mL)

[
  {
    "Compound": "Clc1ccc2c(c1)N(CC1CC1)C1=NCCCN1C2c1ccccc1 (stereo not shown) [9-Cl, H, H, [drawing 4], H, CH2 CH2 CH2]",
    "Target Entity": "rat aortic strips",
    "Result": 0.29
  },
  {
    "Compound": "COc1ccc2c(c1)C(c1ccccc1)N1CCN=C1N2CC1CC1 (stereo not shown) [7-MeO, H, H, [drawing 6], H, CH2 CH2]",
    "Target Entity": "rat aortic strips",
    "Result": 1
  },
  {
    "Compound": "Clc1ccc2c(c1)N(CC1CC1)C1=NCCN1C2c1ccccc1 (stereo not shown) [8-Cl, H, H, [drawing 3], H, CH2 CH2]",
    "Target Entity": "rat aortic strips",
    "Result": 0.24
  },
  {
    "Compound": "CCCCN1C2=NCCCN2C(c2ccccc2)c2cc(Cl)ccc21 (stereo not shown)",
    "Target Entity": "rat aortic strips",
    "Result": 0.27
  }
]

* * *

assay: Diuretic activity (urinary excretion) in rats; format: in vivo; details: standard dose of 10 mg/kg, potassium, control 0.53
Recorded Urinary excretion K^30 for the following compounds

[
  {
    "Compound": "Clc1ccc2c(c1)N(CC1CC1)C1=NCCCN1C2c1ccccc1 (centres unmarked) [9-Cl, H, H, [drawing 4], H, CH2 CH2 CH2]",
    "Urinary excretion K^30 (mequiv/kg)": 0.78
  },
  {
    "Compound": "CN1C2=NCCN2C(O)(c2ccc(Cl)cc2)c2ccccc21 (centres unmarked)",
    "Urinary excretion K^30 (mequiv/kg)": 0.84
  },
  {
    "Compound": "CN1C2=NCCCN2C(c2ccccc2)c2cc(Cl)ccc21 (centres unmarked)",
    "Urinary excretion K^30 (mequiv/kg)": 0.97
  },
  {
    "Compound": "CCCCN1C2=NCCN2C(c2ccccc2)c2cc(Cl)ccc21 (centres unmarked)",
    "Urinary excretion K^30 (mequiv/kg)": 0.86
  },
  {
    "Compound": "Clc1ccc2c(c1)N(CC1CC1)C1=NCCN1C2c1ccccc1 (centres unmarked) [8-Cl, H, H, [drawing 3], H, CH2 CH2]",
    "Urinary excretion K^30 (mequiv/kg)": 0.92
  }
]
